biological target: DPP IV (Homo sapiens, UniProt P27487); assay: Stability against DPP IV enzyme; type: in vitro ADME; conditions: DPP IV enzyme, pH 7.8, 37° C., read-out: half-life (t1/2) with DPP-IV enzyme
Sequence (P27487 whole entry, species assumed): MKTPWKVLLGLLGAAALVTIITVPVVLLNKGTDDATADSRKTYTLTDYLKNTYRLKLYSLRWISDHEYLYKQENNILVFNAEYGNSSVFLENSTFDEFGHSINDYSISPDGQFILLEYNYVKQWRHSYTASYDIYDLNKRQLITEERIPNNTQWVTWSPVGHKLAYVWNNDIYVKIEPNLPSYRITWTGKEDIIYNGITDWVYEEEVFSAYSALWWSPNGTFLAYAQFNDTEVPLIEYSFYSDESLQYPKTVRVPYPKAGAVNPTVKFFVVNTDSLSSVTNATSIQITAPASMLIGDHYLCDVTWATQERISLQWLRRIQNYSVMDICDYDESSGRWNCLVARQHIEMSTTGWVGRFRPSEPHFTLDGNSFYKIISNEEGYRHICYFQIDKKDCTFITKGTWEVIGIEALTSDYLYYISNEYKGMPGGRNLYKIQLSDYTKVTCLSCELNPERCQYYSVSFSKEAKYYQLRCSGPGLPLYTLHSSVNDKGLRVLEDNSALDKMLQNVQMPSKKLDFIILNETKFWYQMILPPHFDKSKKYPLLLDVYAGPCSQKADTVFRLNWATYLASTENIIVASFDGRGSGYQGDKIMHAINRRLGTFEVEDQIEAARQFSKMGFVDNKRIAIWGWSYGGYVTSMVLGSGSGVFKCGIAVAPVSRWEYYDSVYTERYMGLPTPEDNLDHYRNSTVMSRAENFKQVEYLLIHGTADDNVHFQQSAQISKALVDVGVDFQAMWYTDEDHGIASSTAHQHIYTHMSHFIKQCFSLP
endpoint: half-life at 2 μM (h)
Numeric only. Scale: h

{"compound": "CCc1cc(OC)ccc1-c1ccc(CC(NC(=O)[C@H](CC(=O)O)NC(=O)[C@H](CO)NC(=O)[C@@H](NC(=O)C(C)(Cc2ccccc2F)NC(=O)[C@@H](NC(=O)CNC(=O)[C@H](CCC(N)=O)NC(=O)[C@H](C)NC(=O)[C@@H](N)Cc2c[nH]cn2)[C@@H](C)O)[C@@H](C)O)C(=O)NC(Cc2ccc(-c3ccccc3C)nc2)C(N)=O)cc1 (single isomer, unassigned)", "half-life at 2 μM [h]": 9}
{"compound": "CCc1cc(OC)ccc1-c1ccc(CC(NC(=O)[C@H](CC(=O)O)NC(=O)[C@H](CO)NC(=O)[C@@H](NC(=O)C(C)(Cc2ccccc2F)NC(=O)[C@@H](NC(=O)CNC(=O)[C@H](CCC(N)=O)NC(=O)[C@H](C)NC(=O)[C@@H](N)Cc2c[nH]cn2)[C@@H](C)O)[C@@H](C)O)C(=O)NC(Cc2ccc(-c3ccccc3C)cc2)C(N)=O)cc1 (single isomer, unassigned)", "half-life at 2 μM [h]": 9}

// next entry
Problem: # return recorded half-life at 2 μM for input CCc1cc(OC)ccc1-c1ccc(CC(NC(=O)[C@H](CC(=O)O)NC(=O)[C@H](CO)NC(=O)[C@@H](NC(=O)C(C)(Cc2ccccc2F)NC(=O)[C@@H](NC(=O)CNC(=O)[C@H](CCC(N)=O)NC(=O)[C@H](CO)NC(=O)[C@@H](N)Cc2c[nH]cn2)[C@@H](C)O)[C@@H](C)O)C(=O)NC(Cc2ccc(-c3ccccc3C(F)(F)F)cc2)C(N)=O)cc1 (single isomer, unassigned)
Result: 9

###

experiment: Stability against liver microsomes; assay type: in vitro ADME, human; details: human, microsomes; 2 μM, 37° C.; read-out: half-life (t1/2) with liver microsomes
endpoint: half-life (h)
Report the value in h with no unit label.

Illustrative cases are given below, each with its answer.
{"molecule": "CCc1cc(OC)ccc1-c1ccc(CC(NC(=O)[C@H](CC(=O)O)NC(=O)[C@H](CO)NC(=O)[C@@H](NC(=O)[C@H](Cc2ccccc2)NC(=O)[C@@H](NC(=O)CNC(=O)[C@H](CCC(N)=O)NC(=O)C2(NC(=O)[C@@H](N)Cc3c[nH]cn3)CC2)[C@@H](C)O)[C@@H](C)O)C(=O)NC(Cc2ccc(-c3ccccc3F)cc2)C(N)=O)cc1 (single isomer, unassigned)", "readout_number": 2}
{"molecule": "CCc1cc(OC)ccc1-c1ccc(CC(NC(=O)[C@H](CC(=O)O)NC(=O)[C@H](CO)NC(=O)[C@@H](NC(=O)[C@H](Cc2ccccc2)NC(=O)[C@@H](NC(=O)CNC(=O)[C@H](CCC(N)=O)NC(=O)C(C)(C)NC(=O)[C@@H](N)Cc2c[nH]cn2)[C@@H](C)O)[C@@H](C)O)C(=O)NC(Cc2ccc(-c3ccccc3C)nc2)C(N)=O)cc1 (single isomer, unassigned)", "readout_number": 2}

Okay, now this molecule:
Problem: Please list half-life recorded for the molecule CCc1cc(OC)ccc1-c1ccc(CC(NC(=O)[C@H](CC(=O)O)NC(=O)[C@H](CO)NC(=O)[C@@H](NC(=O)[C@H](Cc2ccccc2)NC(=O)[C@@H](NC(=O)CNC(=O)[C@H](CCC(N)=O)NC(=O)C(C)(C)NC(=O)[C@@H](N)Cc2c[nH]cn2)[C@@H](C)O)[C@@H](C)O)C(=O)NC(Cc2ccc(-c3ccccc3F)cc2)C(N)=O)cc1 (single isomer, unassigned)
Result: 2

###

A collection of molecules and their measured % degradation in 24 h when incubated with simulated intestinal fluid
experiment: Stability in simulated intestinal fluid; format: in vitro ADME; conditions: 2 μM, 37° C., 24 h, pH 7.5
Quick reminder: number only, in %, skip the unit.

Examples from the recorded data:
{"molecule": "CCc1cc(OC)ccc1-c1ccc(CC(NC(=O)[C@H](CC(=O)O)NC(=O)[C@H](CO)NC(=O)[C@@H](NC(=O)C(C)(Cc2ccccc2F)NC(=O)[C@@H](NC(=O)CNC(=O)[C@H](CCC(N)=O)NC(=O)C(C)(C)NC(=O)[C@@H](N)Cc2c[nH]cn2)[C@@H](C)O)[C@@H](C)O)C(=O)NC(Cc2ccc(-c3ccccc3C)nc2)C(N)=O)cc1 (single isomer, unassigned) [compound 30]", "readout_number": "00"}
{"molecule": "CCc1cc(OC)ccc1-c1ccc(CC(NC(=O)[C@H](CC(=O)O)NC(=O)[C@H](CO)NC(=O)[C@@H](NC(=O)[C@H](Cc2ccccc2)NC(=O)[C@@H](NC(=O)CNC(=O)[C@H](CCC(N)=O)NC(=O)[C@H](CO)NC(=O)[C@@H](N)Cc2c[nH]cn2)[C@@H](C)O)[C@@H](C)O)C(=O)NC(Cc2ccc(-c3ccccc3C)cc2)C(N)=O)cc1 (single isomer, unassigned) [compound 5]", "readout_number": 100}

Now, please, on to the next molecule.
Problem: Consider the molecule CCc1cc(OC)ccc1-c1ccc(CC(NC(=O)[C@H](CC(=O)O)NC(=O)[C@H](CO)NC(=O)[C@@H](NC(=O)[C@H](Cc2ccccc2)NC(=O)[C@@H](NC(=O)CNC(=O)[C@H](CCC(N)=O)NC(=O)[C@H](C)NC(=O)[C@@H](N)Cc2c[nH]cn2)[C@@H](C)O)[C@@H](C)O)C(=O)NC(Cc2ccc(-c3ccccc3F)cc2)C(N)=O)cc1 (single isomer, unassigned) [compound 11] . State its measured % degradation in 24 h when incubated with simulated intestinal fluid.
Result: 100

###

test: Stability in simulated gastric fluid; type: in vitro ADME; conditions: simulated gi fluid; 2 μM, 37° C., pH 1.5, pepsin; read-out: half-life (t1/2) in simulated gastric fluid
endpoint: half-life (min)
Reply numerically in min, unit not repeated.

{"compound": "CCc1cc(OC)ccc1-c1ccc(CC(NC(=O)[C@H](CC(=O)O)NC(=O)[C@H](CO)NC(=O)[C@@H](NC(=O)[C@H](Cc2ccccc2)NC(=O)[C@@H](NC(=O)CNC(=O)[C@H](CCC(N)=O)NC(=O)C(C)(C)NC(=O)[C@@H](N)Cc2c[nH]cn2)[C@@H](C)O)[C@@H](C)O)C(=O)NC(Cc2ccc(-c3ccccc3C)nc2)C(N)=O)cc1 (single isomer, unassigned)", "half-life (min)": 240}

Problem: Given the compound CCc1cc(OC)ccc1-c1ccc(CC(NC(=O)[C@H](CC(=O)O)NC(=O)[C@H](CO)NC(=O)[C@@H](NC(=O)[C@H](Cc2ccccc2)NC(=O)[C@@H](NC(=O)CNC(=O)[C@H](CCC(N)=O)NC(=O)C(C)(C)NC(=O)[C@@H](N)Cc2c[nH]cn2)[C@@H](C)O)[C@@H](C)O)C(=O)NC(Cc2ccc(-c3ccccc3C)cc2)C(N)=O)cc1 (single isomer, unassigned) , write its reported half-life.
Result: 240

###

Here, each record is paired with measured % degradation in 24 h when incubated with simulated intestinal fluid data.
test: Stability in simulated intestinal fluid; assay type: in vitro ADME; settings: 2 μM, 37° C., 24 h, pH 7.5
Note: unit % is implicit; provide only the numeric part.

Examples with answers:
{"compound": "CCc1cc(OC)ccc1-c1ccc(CC(NC(=O)[C@H](CC(=O)O)NC(=O)[C@H](CO)NC(=O)[C@@H](NC(=O)C(C)(Cc2ccccc2F)NC(=O)[C@@H](NC(=O)CNC(=O)[C@H](CCC(N)=O)NC(=O)C2(NC(=O)[C@@H](N)Cc3c[nH]cn3)CC2)[C@@H](C)O)[C@@H](C)O)C(=O)NC(Cc2ccc(-c3ccccc3C)cc2)C(N)=O)cc1 (single isomer, unassigned) [compound 33]", "readout_number": "00"}
{"compound": "CCc1cc(OC)ccc1-c1ccc(CC(NC(=O)[C@H](CC(=O)O)NC(=O)[C@H](CO)NC(=O)[C@@H](NC(=O)[C@H](Cc2ccccc2)NC(=O)[C@@H](NC(=O)CNC(=O)[C@H](CCC(N)=O)NC(=O)C(C)(C)NC(=O)[C@@H](N)Cc2c[nH]cn2)[C@@H](C)O)[C@@H](C)O)C(=O)NC(Cc2ccc(-c3ccccc3C(F)(F)F)cc2)C(N)=O)cc1 (single isomer, unassigned) [compound 16]", "readout_number": "00"}

Problem: In one line, give reported % degradation in 24 h when incubated with simulated intestinal fluid of the entry CCc1cc(OC)ccc1-c1ccc(CC(NC(=O)[C@H](CC(=O)O)NC(=O)[C@H](CO)NC(=O)[C@@H](NC(=O)[C@H](Cc2ccccc2)NC(=O)[C@@H](NC(=O)CNC(=O)[C@H](CCC(N)=O)NC(=O)[C@H](CO)NC(=O)[C@@H](N)Cc2c[nH]cn2)[C@@H](C)O)[C@@H](C)O)C(=O)NC(Cc2ccc(-c3ccccc3C)nc2)C(N)=O)cc1 (single isomer, unassigned) [compound 6] .
Result: 100

Problem: Indicate its recorded % degradation in 24 h when incubated with simulated intestinal fluid; the compound in question is CCc1cc(OC)ccc1-c1ccc(CC(NC(=O)[C@H](CC(=O)O)NC(=O)[C@H](CO)NC(=O)[C@@H](NC(=O)[C@H](Cc2ccccc2)NC(=O)[C@@H](NC(=O)CNC(=O)[C@H](CCC(N)=O)NC(=O)[C@H](C)NC(=O)[C@@H](N)Cc2c[nH]cn2)[C@@H](C)O)[C@@H](C)O)C(=O)NC(Cc2ccc(-c3ccccc3C)nc2)C(N)=O)cc1 (single isomer, unassigned) [compound 10]
Result: 100

Problem: Please give the documented % degradation in 24 h when incubated with simulated intestinal fluid of CCc1cc(OC)ccc1-c1ccc(CC(NC(=O)[C@H](CC(=O)O)NC(=O)[C@H](CO)NC(=O)[C@@H](NC(=O)[C@H](Cc2ccccc2)NC(=O)[C@@H](NC(=O)CNC(=O)[C@H](CCC(N)=O)NC(=O)[C@H](CO)NC(=O)[C@@H](N)Cc2c[nH]cn2)[C@@H](C)O)[C@@H](C)O)C(=O)NC(Cc2ccc(-c3ccccc3C(F)(F)F)cc2)C(N)=O)cc1 (single isomer, unassigned) [compound 8]
Result: 100
